- target: G-protein coupled bile acid receptor 1 (Homo sapiens)
- assayText: Transactivation of human GPBAR1 receptor expressed in HEK293T cells at 10 to 50 uM after 18 hrs by cAMP response element driven renilla-luciferase dual reporter gene assay
- Type: functional, cell-based
- conditionDetails: HEK-293T
Calls of active or inactive are those of the source. No cut-off for these calls is given here.

>  <compoundString>
C[C@H](CC#N)[C@H]1CC[C@H]2[C@@H]3C[C@@](C)(O)[C@H]4C[C@H](O)CC[C@]4(C)[C@H]3CC[C@]12C

>  <target>
G-protein coupled bile acid receptor 1 (Homo sapiens)

>  <Activity>
inactive

$$$$
>  <compoundString>
CC[C@@]1(O)C[C@@H]2[C@H](CC[C@]3(C)[C@@H]([C@H](C)CC#N)CC[C@@H]23)[C@@]2(C)CC[C@@H](O)C[C@H]12

>  <target>
G-protein coupled bile acid receptor 1 (Homo sapiens)

>  <Activity>
inactive

$$$$
>  <compoundString>
CCC[C@@]1(O)C[C@@H]2[C@H](CC[C@]3(C)[C@@H]([C@H](C)CC#N)CC[C@@H]23)[C@@]2(C)CC[C@@H](O)C[C@H]12

>  <target>
G-protein coupled bile acid receptor 1 (Homo sapiens)

>  <Activity>
inactive

$$$$
>  <compoundString>
C=CC[C@@]1(O)C[C@@H]2[C@H](CC[C@]3(C)[C@@H]([C@H](C)CC#N)CC[C@@H]23)[C@@]2(C)CC[C@@H](O)C[C@H]12

>  <target>
G-protein coupled bile acid receptor 1 (Homo sapiens)

>  <Activity>
inactive

$$$$

* * *

- target: G-protein coupled bile acid receptor 1 (Homo sapiens)
- Sequence (whole entry): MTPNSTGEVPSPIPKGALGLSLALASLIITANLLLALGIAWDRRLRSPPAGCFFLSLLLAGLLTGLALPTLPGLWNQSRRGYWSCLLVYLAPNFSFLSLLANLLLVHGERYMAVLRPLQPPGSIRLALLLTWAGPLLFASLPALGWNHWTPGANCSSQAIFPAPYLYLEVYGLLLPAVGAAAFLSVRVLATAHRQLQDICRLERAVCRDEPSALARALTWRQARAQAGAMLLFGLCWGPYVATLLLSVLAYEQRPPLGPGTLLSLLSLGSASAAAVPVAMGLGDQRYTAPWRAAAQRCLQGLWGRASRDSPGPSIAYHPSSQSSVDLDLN
- assayText: Transactivation of human GPBAR1 receptor expressed in HEK293T cells assessed as maximum receptor activation at 10 uM after 18 hrs by cAMP response element driven renilla-luciferase dual reporter gene assay relative to TLCA
- Assay type: functional, cell-based
- conditionDetails: HEK-293T
Lab note: compare max activation against 60%. Equal or greater, write Fulfilled. Smaller, write Not fulfilled.

>  <compoundString>
C[C@H](CC#N)[C@H]1CC[C@H]2[C@@H]3C[C@](O)(Cc4ccccc4)[C@@H]4C[C@H](O)CC[C@]4(C)[C@H]3CC[C@]12C

>  <label>
Not fulfilled

$$$$
>  <compoundString>
C[C@H](CC#N)[C@H]1CC[C@H]2[C@@H]3C[C@H](O)[C@@H]4C[C@H](O)CC[C@]4(C)[C@H]3CC[C@]12C

>  <label>
Fulfilled

$$$$
>  <compoundString>
CCC[C@]1(O)C[C@H]2[C@@H]3CC[C@H]([C@H](C)CC#N)[C@@]3(C)CC[C@@H]2[C@@]2(C)CC[C@@H](O)C[C@@H]12

>  <label>
Fulfilled

$$$$
>  <compoundString>
CC[C@@]1(O)C[C@H]2[C@@H]3CC[C@H]([C@H](C)CC#N)[C@@]3(C)CC[C@@H]2[C@@]2(C)CC[C@@H](O)C[C@@H]12

>  <label>
Fulfilled

$$$$
>  <compoundString>
CC(C)[C@]1(O)C[C@@H]2[C@H](CC[C@]3(C)[C@@H]([C@H](C)CC#N)CC[C@@H]23)[C@@]2(C)CC[C@@H](O)C[C@H]21

>  <label>
Not fulfilled

$$$$
>  <compoundString>
C=C[C@]1(O)C[C@@H]2[C@H](CC[C@]3(C)[C@@H]([C@H](C)CC#N)CC[C@@H]23)[C@@]2(C)CC[C@@H](O)C[C@H]21

>  <label>
Fulfilled

$$$$
